# System: U2OS
# ASSAY: Incucyte cell viability with U2OS; note: unitless GR value; below 1 slowed growth and below 0 cell loss
# Type: toxicity, cell-based
# EXPERIMENTAL_PARAMETERS: human, 24 h, 10 µM, compound concentration 10 uM, replicate number 1
Under this convention, 1 denotes Growth Rate strictly below 0.7 and 0 denotes Growth Rate at or above 0.7.

O=C(Nc1ccc(S(=O)(=O)Nc2nccs2)cc1)C(c1ccccc1)c1ccccc1    0
Fc1cccc(-n2cnc3c(NCc4nc5ccc(F)c(F)c5[nH]4)nc(N4CCOCC4)nc32)c1    1
O=S1(=O)NCN(C2CC2)c2ccc(F)cc21    0
O=C(Nc1ccc(OC(F)(F)Cl)cc1)c1cnc(N2CC[C@@H](O)C2)c(-c2ccn[nH]2)c1    0
O=c1[nH]c(CS[C@H]2CC[C@H](O)CC2)nc2cc(OCC3CC3)cc(F)c12    0

Q: Is Growth Rate of `CC(C)n1cnc2c(Nc3cccc(Cl)c3)nc(N[C@H]3CCCC[C@@H]3N)nc21` strictly below 0.7?
Ans: 1

Q: Is Growth Rate of CCCCCCC(Sc1nc(Cl)cc(NCc2ccc(-c3ccccc3)cc2)n1)C(=O)O (centres undefined) strictly below 0.7?
Ans: 0

Q: Is Growth Rate of `CN1CC(=O)N(C)c2cnc(Nc3ccc(NC(=O)Nc4cccc(C(=O)O)c4)cc3)nc21` strictly below 0.7?
Ans: 0

* * *

# Test system: U2OS
# ASSAY: Incucyte cell viability with U2OS; note: unitless GR value; below 1 slowed growth and below 0 cell loss
# Format: toxicity, cell-based
# EXPERIMENTAL_PARAMETERS: human, 6 h, 10 µM, compound concentration 10 uM, replicate number 1
READOUT_TYPE: Growth Rate
Simply state the number, no unit and no words.

O=C(Nc1c(-c2cccs2)nc2ccc(Cl)cn12)c1ccc(Cl)cc1    0.3
CN[C@@H]1CC[C@@H](c2ccc(Cl)c(Cl)c2)c2ccccc21.Cl    0.8
CC(=O)Nc1ncc(CN2CCC[C@H](Cc3cc(C)nc(C)c3)C2)s1 [JNJ-65355394]    -0.86
COc1cc2nc(C)nc(N[C@H](C)c3cc(N)cc(C(F)(F)F)c3)c2cc1O[C@H]1CCOC1    0.51

Here's the next entry for you.
Recorded result, O=C(Nc1ccc(-n2nc(-c3cccnc3)cc2C(F)(F)F)cn1)c1ccc(-c2ccccc2)c(F)c1 [BI 2049] , Growth Rate: 0.83

* * *

# Test system: HEK-293T
# ASSAY: Incucyte cell viability with HEK293T; note: unitless GR value; below 1 slowed growth and below 0 cell loss
# Assay type: toxicity, cell-based
# EXPERIMENTAL_PARAMETERS: human, 0 h, 10 µM, compound concentration 10 uM, replicate number 1
In this section, each of the compounds is paired with its reported Growth Rate.

Observe how each entry below is paired with its result.
Cn1cc(-c2ccc(N(C(=O)NCc3ccccc3)[C@H]3CC[C@H](Nc4ccc(C#N)cn4)CC3)cc2)ccc1=O    -0.73
COc1ccc(-c2c(-c3ccccc3)oc3ncnc(O[C@H](C)CCCCC(=O)O)c23)cc1    0.1

The compound CN(C1CCc2c(c3ccccc3n2CC(=O)O)C1)S(=O)(=O)c1ccc(F)cc1 (stereo not given) on HEK-293T: Growth Rate was 0.38

The compound CCN(CC)C(=O)C1CN2CCc3cc(OC)c(OC)cc3C2CC1OC(C)=O (stereo not given) [BENZQUINAMIDE] on HEK-293T: Growth Rate was 0.39

The compound `c1cc(-c2cnn3cc(-c4ccc(N5CCNCC5)cc4)cnc23)c2cccnc2c1` on HEK-293T: Growth Rate was -0.92

* * *

# System: HEK-293T
# ASSAY: Incucyte cell viability with HEK293T; note: unitless GR value; below 1 slowed growth and below 0 cell loss
# Type: toxicity, cell-based
# EXPERIMENTAL_PARAMETERS: human, 24 h, 10 µM, compound concentration 10 uM, replicate number 2
In this section, each of the compounds is paired with its reported Growth Rate.
Simply state the number, no unit and no words.

COc1cc(N2CCN(C)CC2)ccc1Nc1nccc(-c2cn(C)c3cnccc23)n1    0.8
CC(C)c1ccc(CC(=O)N[C@H](C)c2ccc(OCC(F)(F)F)cn2)cc1 [SUVECALTAMIDE]    0.8
Cc1c(-c2c(F)cc(C(N)=O)c3[nH]c4c(c23)CC[C@H](C(C)(C)O)C4)cccc1-n1c(=O)c2cccc(F)c2n(C)c1=O    -0.39

Recorded result, `O=C1NCc2ccc3c(-c4cccc(Cl)c4)c[nH]c3c21` , Growth Rate: -0.07

* * *

# System: Fibroblast
# ASSAY: Incucyte cell viability with human fibroblast; note: unitless GR value; below 1 slowed growth and below 0 cell loss
# Format: toxicity, cell-based
# EXPERIMENTAL_PARAMETERS: 18 h, 10 µM, compound concentration 10 uM, replicate number 1
READOUT_TYPE: Growth Rate
Simply state the number, no unit and no words.

Observe how each entry below is paired with its result.
CCN1CCN(Cc2ccc(C(=O)Nc3ccc(C)c(Oc4ccc5c(c4)CC(=O)N5)c3)cc2C(F)(F)F)CC1.Cl.Cl    -0.33
CC[C@@H](C(=O)OC)n1c(=O)c2ccccc2n(Cc2cn(C)c3cccc(C)c23)c1=O    0.75
CC(N)C1CCC(C(=O)Nc2ccncc2)CC1 (centres undefined)    -0.47
CN(C)[C@H]1C[C@H](n2cnc(-c3ccc(F)cn3)c2-c2ccnc3[nH]ccc23)C1    0.84
CC1(C)CCC[C@]2(C)[C@@H](C=O)C(C=O)=CC[C@@H]12    -0.77
CC[C@@H](Nc1c(C#N)c(-c2ccc(-c3cccc(C)c3F)cc2)nc2cnccc12)C(=O)O    0.96

Recorded result, `CCOc1ccc(S(=O)(=O)Nc2ccc(Cl)cc2C#Cc2cnc(C(=O)[O-])cc2OC)c2ncccc12.[K+]` , Growth Rate: 1

Recorded result, `COc1cc(C(=O)NC2CCN(C)CC2)ccc1Nc1ncc2c(n1)N(C1CCCC1)CC(F)(F)C(=O)N2C` , Growth Rate: 0.36

Recorded result, `COc1cccc(-c2c(C)c(Cc3c(F)cccc3C(F)(F)F)c3n(c2=O)[C@@H]([C@@H](N)c2ccccc2)CS3)c1F` , Growth Rate: 0.92

* * *

# Test system: HEK-293T
# ASSAY: Incucyte cell viability with HEK293T; note: unitless GR value; below 1 slowed growth and below 0 cell loss
# Type: toxicity, cell-based
# EXPERIMENTAL_PARAMETERS: human, 12 h, 10 µM, compound concentration 10 uM, replicate number 2
Criterion: Growth Rate meeting or surpassing -0.2. Met: Criterion met. Not met: Criterion not met.

COc1ccc(F)c(F)c1C(=O)c1cnc(NC2CCN(S(C)(=O)=O)CC2)nc1N    Criterion not met
CC(C)(O)[C@H](F)CN1Cc2cc(NC(=O)c3cnn4cccnc34)c(N3CCOCC3)cc2C1=O    Criterion met
COC1(C#Cc2ccc(Cl)c(-c3ncc4c(n3)-c3sc(NC(C)=O)nc3CC4)c2)CCN(C)CC1    Criterion met
CCN1C(=O)N(c2c(F)c(OC)cc(OC)c2F)Cc2cnc3[nH]c(CN4CCOCC4)cc3c21    Criterion met

Q: Dear colleague, could you confirm whether `Cc1ccc(NC(=O)c2ccc3c(c2)OCCO3)cc1NC(=O)c1ccc2nc(OCCN3CCCC3)ccc2c1` has Growth Rate at or above -0.2?
Ans: Criterion not met

Q: Dear colleague, could you confirm whether CCn1c(-c2nonc2N)nc2c(C#CC(C)(C)O)ncc(OCC3CCCNC3)c21 (stereo not drawn) has Growth Rate at or above -0.2?
Ans: Criterion met

Q: Dear colleague, could you confirm whether `Cc1cc(NC(=O)c2cccc(NC(=O)/C=C/CN(C)C)c2)ccc1Nc1nccc(-c2cccnc2)n1` has Growth Rate at or above -0.2?
Ans: Criterion not met

Q: Dear colleague, could you confirm whether `CN1C(=O)Cc2ccc(-c3ccc(C[C@@H](C#N)NC(=O)[C@@H]4N[C@H]5CC[C@@H]4C5)c(F)c3)cc21` has Growth Rate at or above -0.2?
Ans: Criterion met

* * *

In this section, each of the compounds is paired with its reported Growth Rate.
# System: Fibroblast
# ASSAY: Incucyte cell viability with human fibroblast; note: unitless GR value; below 1 slowed growth and below 0 cell loss
# Format: toxicity, cell-based
# EXPERIMENTAL_PARAMETERS: 18 h, 10 µM, compound concentration 10 uM, replicate number 2
Simply state the number, no unit and no words.

Observe how each entry below is paired with its result.
CSc1ccc(C(=O)/C=C/c2cc(C)c(OC(C)(C)C(=O)O)c(C)c2)cc1    0.9
CC(=O)Oc1ccc2c(c1)[C@@]1(C)CCC[C@](C)(C(=O)OC(=O)[C@@]3(C)CCC[C@]4(C)c5cc(OC(C)=O)ccc5CC[C@@H]34)[C@@H]1CC2 [ACETYL PODOCARPIC ACID ANHYDRIDE]    0.61
O=C(Nc1c[nH]nc1-c1nc2cc(CN3CCOCC3)ccc2[nH]1)NC1CC1    0.81
CCC(C(=O)Nc1ccc(-c2cc3ccccc3s2)c(C(N)=O)c1)c1nccs1 (stereo not drawn)    0.9
CNc1nc(-c2ccc3c(N)n[nH]c3c2)cc(N2C[C@@H](C(=O)NC3CCCCC3)CC[C@H]2C)n1    0.7
FC(F)(F)c1ccccc1-c1cc(C(F)(F)F)c2[nH]c(C3=NOC4(CCCCC4)C3)nc2c1    -0.08

Recorded result, `C=CC(=O)Nc1ccc(C(=O)Nc2n[nH]c3c2CN(C(=O)N[C@H](CN(C)C)c2ccccc2)C3(C)C)cc1` , Growth Rate: 0.06

Recorded result, `Cc1cc(C)cc(C(=O)NOCCCCCC(=O)NO)c1` , Growth Rate: 0.23
